molecular target: T1, human CD40 (human, UniProt P25942 21-277); assay: FACS, Raji cells
T1 construct: whole, on cells; also called hCD40; TNFRSF5
T1 sequence (P25942 21-277): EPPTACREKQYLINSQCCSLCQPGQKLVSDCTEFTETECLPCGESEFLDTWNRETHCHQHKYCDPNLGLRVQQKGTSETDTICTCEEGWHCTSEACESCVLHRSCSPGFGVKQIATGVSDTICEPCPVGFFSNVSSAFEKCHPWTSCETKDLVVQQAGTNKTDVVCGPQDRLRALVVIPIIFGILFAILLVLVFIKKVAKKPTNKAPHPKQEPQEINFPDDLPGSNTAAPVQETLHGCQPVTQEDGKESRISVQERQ
Measure Name: EC50 (nM)
// return numeric value only (unit: nM, not printed)

Some solved entries appear below for comparison.
PR003379 (antibody, human IgG2, kappa, V domains shown, also called clone 18C4A12-1B1) VH: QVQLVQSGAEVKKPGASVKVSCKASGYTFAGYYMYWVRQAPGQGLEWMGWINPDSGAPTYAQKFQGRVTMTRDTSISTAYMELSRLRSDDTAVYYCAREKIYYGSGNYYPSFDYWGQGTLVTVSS VL: DIQLTQSPSFLSASVGDRVTITCRASQGISSYLAWYQQKPGKAPKLLIYAASTLQSGVPSRFSGSGSGTEFTLTISSLQPEDFATYYCQQLNSYPWTFGQGTKVEIKR | 0.0699
PR006511 (antibody, human IgG1, kappa, V domains shown, Variant of PR003379, L: S93N; human IgG1 L234A, L235A, G237A) VH: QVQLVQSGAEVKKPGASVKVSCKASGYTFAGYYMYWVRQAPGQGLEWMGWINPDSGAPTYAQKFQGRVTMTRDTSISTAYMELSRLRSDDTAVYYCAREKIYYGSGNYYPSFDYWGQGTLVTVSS VL: DIQLTQSPSFLSASVGDRVTITCRASQGISSYLAWYQQKPGKAPKLLIYAASTLQSGVPSRFSGSGSGTEFTLTISSLQPEDFATYYCQQLNNYPWTFGQGTKVEIKR | 0.386

# ---- query binder ----
Prompt line: # return recorded EC50 for entry PR006504 (antibody, human IgG1, kappa, V domains shown, Variant of PR003379, L: N92V; human IgG1 L234A, L235A, G237A) VH: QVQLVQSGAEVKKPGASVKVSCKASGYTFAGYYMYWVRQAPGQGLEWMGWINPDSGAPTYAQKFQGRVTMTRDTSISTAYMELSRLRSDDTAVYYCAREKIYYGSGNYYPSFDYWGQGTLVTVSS VL: DIQLTQSPSFLSASVGDRVTITCRASQGISSYLAWYQQKPGKAPKLLIYAASTLQSGVPSRFSGSGSGTEFTLTISSLQPEDFATYYCQQLVSYPWTFGQGTKVEIKR
Response line: 0.35
